Assign intrinsic clearance, human liver microsomes to each entry below.
Give a bare numeral; the unit mL/min/kg is implied.

q: Query (compound): `O=C(NCc1cccnc1)c1sccc1-c1ccccc1` ; field requested: intrinsic clearance, human liver microsomes
a: 45.2

q: Same question, `Nc1ccc(Cl)c(NC2=NN(c3c(Cl)cc(Cl)cc3Cl)C(=O)C2)c1` this time
a: 92.5

q: Same question, `C[C@]12C=CC(=O)C=C1CC[C@@H]1[C@@H]2[C@@H](O)C[C@@]2(C)[C@H]1CC[C@]2(O)C(=O)CO` this time
a: 25.4

q: Same question, `O=C(CSc1ccc2c(c1)OCCO2)NC1CCCC1` this time
a: 83.8

q: Same question, `Cc1cc(NC(=O)C2CCN(c3ccncc3Cl)CC2)no1` this time
a: 12.7

q: Same question, Cc1ncsc1C(=O)N1CCCCC1c1nc(N)ncc1-c1cccc(C(F)(F)F)c1 (stereo unspecified) this time
a: 373

q: Same question, `Cc1nc(-c2cnn(C)c2-c2ccc(C(F)(F)F)cn2)c2c(N3CCC3)ncnn12` this time
a: 54.3
